Assignment: determine reported p-nitrophenol glucuronidation activity for the given molecules.
# System: UGT
# protocol_notes: p-nitrophenol glucuronidation, mouse hepatic microsomes
# Format: in vitro ADME
# test_parameters: 25 µM
Entry format: amount then unit.

Below are some molecules; for each one, tell me its p-nitrophenol glucuronidation activity.
1. CCCCCC12CCC(C(=O)O)(CC1)CC2
2. C[C@]12CC(=O)C[C@@]1(C)CC(=O)C2

Output:
["2.21 ± 0.14 µmol/mg/min", "2.40 ± 0.15 µmol/mg/min"]

---

# Test system: UGT
# protocol_notes: p-nitrophenol glucuronidation, possum hepatic microsomes
# Format: in vitro ADME, possum (Trichosurus vulpecula)
# test_parameters: 25 µM
measure_name: p-nitrophenol glucuronidation activity (µmol/mg/min)
One number for each entry, in µmol/mg/min.

Consider the reported p-nitrophenol glucuronidation activity for these compounds:
compound	p-nitrophenol glucuronidation activity, µmol/mg/min
O=C(O)C1CC2C=CC1O2 (stereo not drawn)	3.99
CCCCCC12CCC(C(=O)O)(CC1)CC2	3.96

Lab note: CC12CCC(CC1)C(C)(C)O2 [Cineole] gave p-nitrophenol glucuronidation activity of 4.18

---

# Test system: CYP3A
# protocol_notes: CYP3A catalytic activity (erythromycin-N-demethylation), possum hepatic microsomes
# Format: in vitro ADME, possum (Trichosurus vulpecula)
# test_parameters: 25 µM
measure_name: CYP3A catalytic activity

compound	measure_name	measured
COC(=O)[C@H]1CC[C@H](C(=O)OC)CC1	CYP3A catalytic activity	0.42 ± 0.03 nmol/mg/min

Look at each compound and report its CYP3A catalytic activity.
1. C[C@]12CC(=O)C[C@@]1(C)CC(=O)C2
2. CC1(O)CCC(C(C)(C)O)CC1 (stereo in doubt) [Trans-terpin, trans-terpin]
3. CC1(C)CCCCC1
4. CCCCCC12CCC(C(=O)O)(CC1)CC2
5. CC12CCC(CC1=O)C2(C)C (stereo not drawn)
6. O=C(O)C1CC2C=CC1O2 (stereo not drawn)

Output:
1. 0.40 ± 0.03 nmol/mg/min
2. 0.40 ± 0.03 nmol/mg/min
3. 0.40 ± 0.02 nmol/mg/min
4. 0.40 ± 0.02 nmol/mg/min
5. 0.41 ± 0.03 nmol/mg/min
6. 0.40 ± 0.02 nmol/mg/min

// for each compound in input: emit CYP3A catalytic activity
1. CC12CCC(CC1)C(C)(C)O2
2. O=C(O)C1C2C=CC(C2)C1C(=O)O (stereo not drawn)

Output:
0.41 ± 0.01 nmol/mg/min
0.38 ± 0.02 nmol/mg/min

---

# Tested on: CYP3A
# protocol_notes: CYP3A catalytic activity (erythromycin-N-demethylation), rat hepatic microsomes
# Assay type: in vitro ADME
# test_parameters: 25 µM
measure_name: CYP3A catalytic activity (nmol/mg/min)
Answers are plain numbers, in nmol/mg/min.

Study these solved cases before continuing.
molecule	target_entity	CYP3A catalytic activity / nmol/mg/min
CCCCCC12CCC(C(=O)O)(CC1)CC2	CYP3A	0.55
CC1(C)CCCCC1	CYP3A	0.61
CC12CCC(CC1=O)C2(C)C (stereo not drawn)	CYP3A	0.59
CC12CCC(CC1)C(C)(C)O2	CYP3A	0.65
O=C(O)C1CC2C=CC1O2 (stereo not drawn)	CYP3A	0.51
C[C@]12CC(=O)C[C@@]1(C)CC(=O)C2	CYP3A	0.60
COC(=O)[C@H]1CC[C@H](C(=O)OC)CC1	CYP3A	0.73
CC1(O)CCC(C(C)(C)O)CC1 (stereo in doubt) [Trans-terpin, trans-terpin]	CYP3A	0.60

With those in mind, consider the next molecule.
The recorded CYP3A catalytic activity for O=C(O)C1C2C=CC(C2)C1C(=O)O (stereo not drawn) is 0.64
